B1: Twister Ribozyme (parent)
chain: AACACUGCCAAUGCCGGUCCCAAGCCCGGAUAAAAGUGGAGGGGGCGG

Variants of: B1
Assay: self-cleavage, relative activity (ratio to wild type); higher = more cleavage; co-transcriptional
Decision: self-cleavage >= 0.5 yields y, all other cases yield n.

Change | Class assignment
A34C G38U | n
U6A G45C | n
A11C A35C | y
G24C C25G | n
G36A G47U | y
C20U A30C | y
A22G G43C | n
G28A A32C | y
C21U | n
C15U U31A | y
A10C A23G | n
C3A C26U | n
U18C A35U | y
C14A G42U | n
G24C G38A | n
A10C G36A | y
C3A G17U | n
A4U A33G | n
C20G G29U | n
C5U G48U | y
A1C A30U | n
C25A C26A | n
